Each item that follows carries a reported viability at 72 h, 0.04 uM.
assaySummary: Drug combination test, mock-infected Vero-E6 cells (CTG)
Format: cell-based
assayConditions: African green monkey, mock-infected Vero-E6 cells (control), single drug 0.04 uM (other drug 0), read-out: Relative viability (%)
propertyMeasured: viability at 72 h, 0.04 uM (%)

compound: Cc1c(O)cccc1C(=O)N[C@@H](CSc1ccccc1)[C@H](O)CN1C[C@H]2CCCC[C@H]2C[C@H]1C(=O)NC(C)(C)C [Nelfinavir]
reading: 100
--
compound: CCN(CC)Cc1cc(Nc2ccnc3cc(Cl)ccc23)ccc1O [Amodiaquine]
reading: 91.8

meta.source: paper PMC7354438
